TESTED_ON: Early growth response protein 1 (Homo sapiens)
EXPERIMENTAL_PROTOCOL: Disruption of EGR-1-DNA binding in human HaCaT cell nuclear extract at 50 uM in the presence of biotin-EBS oligonucleotide probe (5'-CAAAAAGGAGGAAGGTGAGGGAA-biotin-3') and poly(dI-dC) by EMSA analysis relative to control
Assay type: subcellular
PARAMETER_MEASURED: Activity (%)

Solved entries (count: 4):
COc1cccc(NC(=S)N2N=C(c3ccc4ccccc4c3O)CC2c2c(OC)cc(OC)cc2OC)c1 (centres undefined) = 64.8
COc1cccc(C2CC(c3ccc4ccccc4c3O)=NN2C(=S)Nc2ccc(OC)cc2OC)c1 (centres undefined) = 27
COc1ccc(NC(=S)N2N=C(c3cc(OC)ccc3O)CC2c2ccc(OC)c3ccccc23)cc1 (centres undefined) = 28
COc1cc(OC)cc(C2CC(c3ccc4ccccc4c3O)=NN2C(=S)Nc2ccccc2)c1 (centres undefined) = 59

[A] COc1ccc(O)c(C2=NN(C(=S)Nc3ccccc3OC)C(c3ccc(OC)c4ccccc34)C2)c1 (centres undefined)
[B] COc1ccccc1NC(=S)N1N=C(c2ccc3ccccc3c2O)CC1c1ccccc1OC (centres undefined)
[C] COc1cccc(NC(=S)N2N=C(c3c(O)cccc3OC)CC2c2ccc(OC)c3ccccc23)c1 (centres undefined)
### Prompt // sort entries: Activity, high to low Arrange the labels as the request states and list them.
### Response C, B, A

[I] COc1ccc(NC(=S)N2N=C(c3c(O)ccc4ccccc34)CC2c2ccccc2OC)cc1 (centres undefined)
[II] COc1ccc(NC(=S)N2N=C(c3ccc4ccccc4c3O)CC2c2ccc(OC)cc2OC)c(OC)c1 (centres undefined)
### Prompt Form: Entry with minimum Activity (choose one): I / II Answer format: the label of the selected item.
### Response I
(I: 31.8%, II: 60.2%)

###

TESTED_ON: Early growth response protein 1 (Homo sapiens)
EXPERIMENTAL_PROTOCOL: Disruption of EGR-1-DNA binding in human HaCaT cell nuclear extract at 50 uM in the presence of biotin-EBS oligonucleotide probe (5'-CAAAAAGGAGGAAGGTGAGGGAA-biotin-3') and poly(dI-dC) by EMSA analysis relative to control
Format: subcellular
PARAMETER_MEASURED: Activity (%)

COc1ccc(NC(=S)N2N=C(c3ccc4ccccc4c3O)CC2c2ccccc2OC)cc1 (stereo unspecified) = 31.2
COc1cccc(C2CC(c3ccc4ccccc4c3O)=NN2C(=S)Nc2cc(OC)c(OC)c(OC)c2)c1 (stereo unspecified) = 30.8
COc1cc(NC(=S)N2N=C(c3ccc4ccccc4c3O)CC2c2cccc(OC)c2OC)cc(OC)c1OC (stereo unspecified) = 35.6

[A] COc1cccc(NC(=S)N2N=C(c3c(O)cc(OC)cc3OC)CC2c2ccc(OC)c3ccccc23)c1 (stereo unspecified)
[B] COc1cccc(NC(=S)N2N=C(c3ccccc3O)CC2c2ccc(OC)c3ccccc23)c1 (stereo unspecified)
### Prompt Form: Entry with minimum Activity (choose one): A / B Answer format: the label of the selected item.
### Response B

###

TESTED_ON: UniProt:P18146
Sequence (P18146 whole entry, looked up): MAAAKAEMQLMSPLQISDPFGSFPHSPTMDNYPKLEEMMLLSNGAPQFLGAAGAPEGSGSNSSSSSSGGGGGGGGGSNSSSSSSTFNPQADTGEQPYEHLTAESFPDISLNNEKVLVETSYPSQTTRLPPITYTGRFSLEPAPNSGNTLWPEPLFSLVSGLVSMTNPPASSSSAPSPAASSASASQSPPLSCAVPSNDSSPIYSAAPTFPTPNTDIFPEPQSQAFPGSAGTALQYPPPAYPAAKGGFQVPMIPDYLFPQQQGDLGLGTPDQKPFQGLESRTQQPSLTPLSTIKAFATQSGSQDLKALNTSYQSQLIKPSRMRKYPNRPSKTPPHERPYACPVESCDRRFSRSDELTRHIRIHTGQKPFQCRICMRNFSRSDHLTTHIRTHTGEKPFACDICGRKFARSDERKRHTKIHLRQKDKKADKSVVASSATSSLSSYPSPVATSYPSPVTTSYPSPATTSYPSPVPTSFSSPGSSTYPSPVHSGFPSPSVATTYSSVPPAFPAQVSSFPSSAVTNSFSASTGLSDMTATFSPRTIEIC
EXPERIMENTAL_PROTOCOL: Disruption of EGR-1-DNA binding in human HaCaT cell nuclear extract at 50 uM in the presence of biotin-EBS oligonucleotide probe (5'-CAAAAAGGAGGAAGGTGAGGGAA-biotin-3') and poly(dI-dC) by EMSA analysis relative to control
Type: subcellular
PARAMETER_MEASURED: Activity (%)

Solved entries (count: 8):
COc1cccc(NC(=S)N2N=C(c3ccc(OC)cc3O)CC2c2cccc3ccccc23)c1 (stereo unspecified) = 32
COc1ccc(NC(=S)N2N=C(c3ccc4ccccc4c3O)CC2c2cccc(OC)c2OC)cc1 (stereo unspecified) = 27
COc1ccc(NC(=S)N2N=C(c3ccc(OC)cc3O)CC2c2cccc3ccccc23)cc1 (stereo unspecified) = 35.1
COc1ccc(C2CC(c3ccc4ccccc4c3O)=NN2C(=S)Nc2ccccc2)c(OC)c1OC (stereo unspecified) = 44
COc1ccccc1NC(=S)N1N=C(c2c(O)cccc2OC)CC1c1ccc(OC)c2ccccc12 (stereo unspecified) = 67.3
COc1cc(NC(=S)N2N=C(c3c(O)cccc3OC)CC2c2cccc3ccccc23)cc(OC)c1OC (stereo unspecified) = 51.6
COc1cc(O)c(C2=NN(C(=S)Nc3cc(OC)c(OC)c(OC)c3)C(c3cccc4ccccc34)C2)c(OC)c1 (stereo unspecified) = 38.2
COc1ccc(NC(=S)N2N=C(c3cc(OC)c(OC)cc3O)CC2c2ccc(OC)c3ccccc23)cc1 (stereo unspecified) = 57.3

[1] COc1ccc(NC(=S)N2N=C(c3ccc4ccccc4c3O)CC2c2ccc(OC)c(OC)c2OC)c(OC)c1 (stereo unspecified)
[2] COc1cc(O)c(C2=NN(C(=S)Nc3ccccc3OC)C(c3cccc4ccccc34)C2)c(OC)c1 (stereo unspecified)
[3] COc1ccc(C2CC(c3ccccc3O)=NN2C(=S)Nc2ccccc2)c2ccccc12 (stereo unspecified)
### Prompt Order by Activity, ascending. Arrange the labels as the request states and list them.
### Response 3, 1, 2

[A] COc1ccc(NC(=S)N2N=C(c3cc(OC)c(OC)cc3O)CC2c2cccc3ccccc23)cc1 (stereo unspecified)
[B] COc1cc(OC)cc(C2CC(c3ccc4ccccc4c3O)=NN2C(=S)Nc2cc(OC)c(OC)c(OC)c2)c1 (stereo unspecified)
### Prompt Form: Entry with minimum Activity (choose one): A / B Answer format: the label of the selected item.
### Response A
(A: 46.9%, B: 67.5%)

[A] COc1ccc(/C=C/c2cc(OC)cc(OC)c2-c2oc3ccc([N+](=O)[O-])cc3c(=O)c2O)cc1
[B] COc1ccc(C2CC(c3ccc4ccccc4c3O)=NN2C(=S)Nc2ccccc2)cc1 (stereo unspecified)
### Prompt In the pair A and B , the larger recorded Activity belongs to which? Answer format: the label of the selected item.
### Response B
(B: 52.8%, A: 36.5%)

[a] COc1ccccc1NC(=S)N1N=C(c2ccc3ccccc3c2O)CC1c1cc(OC)c(OC)cc1OC (stereo unspecified)
[b] COc1ccccc1NC(=S)N1N=C(c2c(O)cccc2OC)CC1c1cccc2ccccc12 (stereo unspecified)
### Prompt In the pair a and b , the larger recorded Activity belongs to which? Answer format: the label of the selected item.
### Response a

[P] COc1cccc(NC(=S)N2N=C(c3ccc4ccccc4c3O)CC2c2cc(OC)cc(OC)c2)c1 (stereo unspecified)
[Q] COc1ccc(NC(=S)N2N=C(c3c(O)cccc3OC)CC2c2ccc(OC)c3ccccc23)cc1 (stereo unspecified)
### Prompt In the pair P and Q , the larger recorded Activity belongs to which? Answer format: the label of the selected item.
### Response Q
(Q: 66.7%, P: 42.8%)

[a] COc1ccc(NC(=S)N2N=C(c3ccc4ccccc4c3O)CC2c2cc(OC)c(OC)cc2OC)c(OC)c1 (stereo unspecified)
[b] COc1cccc(NC(=S)N2N=C(c3cc(OC)c(OC)cc3O)CC2c2cccc3ccccc23)c1 (stereo unspecified)
### Prompt Form: Entry with minimum Activity (choose one): a / b Answer format: the label of the selected item.
### Response b

Cited source: ChEMBL document CHEMBL6103550
